Assay Method Text: Volume of distribution at steady state in rat at 1 mg/kg, iv and 5 mg/kg, po
Type: ADME, organism-based
Condition Summary: in vivo, read-out: Vdss

Compound Structure String | Vd [L/kg]
CC(F)(F)CN1CCOc2c(nn(-c3ccccc3Cl)c2-c2ccc(Cl)cc2)C1=O | 2.6
CC(F)(F)CN1CCc2c(nn(-c3ccccc3Cl)c2-c2ccc(Cl)cc2)C1=O | 2.6

====

Target System: Cannabinoid receptor 1 (Homo sapiens, UniProt P21554)
Sequence (P21554 whole entry): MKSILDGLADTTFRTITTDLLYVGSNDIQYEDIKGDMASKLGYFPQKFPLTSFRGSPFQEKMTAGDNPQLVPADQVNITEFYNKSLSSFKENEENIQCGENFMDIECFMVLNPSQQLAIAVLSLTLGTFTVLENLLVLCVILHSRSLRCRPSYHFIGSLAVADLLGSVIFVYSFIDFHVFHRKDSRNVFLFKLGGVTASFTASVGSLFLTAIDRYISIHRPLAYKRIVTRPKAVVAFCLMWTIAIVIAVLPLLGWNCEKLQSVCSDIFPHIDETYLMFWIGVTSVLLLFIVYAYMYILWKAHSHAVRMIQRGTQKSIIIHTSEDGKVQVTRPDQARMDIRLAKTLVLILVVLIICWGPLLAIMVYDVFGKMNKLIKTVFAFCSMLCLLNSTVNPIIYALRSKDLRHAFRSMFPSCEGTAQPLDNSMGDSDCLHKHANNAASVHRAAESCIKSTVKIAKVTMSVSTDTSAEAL
Assay Method Text: Binding affinity to CB1 receptor
pKi: −log10 of the molar value.

Compound Structure String | pKi
O=C1c2nn(-c3ccccc3Cl)c(-c3ccc(Cl)cc3)c2CCN1CC(F)(F)F | 8.77
CC(C)N1CCOc2c(nn(-c3ccccc3Cl)c2-c2ccc(Cl)cc2)C1=O | 8.89
CC(C)N1CCc2c(nn(-c3ccccc3Cl)c2-c2ccc(Cl)cc2)C1=O | 8.60
CC(F)(F)CN1CCc2c(nn(-c3ccccc3Cl)c2-c2ccc(Cl)cc2)C1 | 7.52
O=C1c2nn(-c3ccccc3Cl)c(-c3ccc(Cl)cc3)c2OCCN1CC(F)(F)F | 8.72
CC(C)CN1CCc2c(nn(-c3ccccc3Cl)c2-c2ccc(Cl)cc2)C1=O | 8.60
CC(C)(C)N1CCc2c(nn(-c3ccccc3Cl)c2-c2ccc(Cl)cc2)C1=O | 8.33
O=C1c2nn(-c3ccccc3Cl)c(-c3ccc(Cl)cc3)c2CCN1C1CCCC1 | 7.62
CCC(F)(F)CN1CCOc2c(nn(-c3ccccc3Cl)c2-c2ccc(Cl)cc2)C1=O | 8.85
CCN1CCc2c(nn(-c3ccccc3Cl)c2-c2ccc(Cl)cc2)C1=O | 8.33

====

Below, each entry is listed with its recorded pKi.
Target System: Cannabinoid receptor 1 (Homo sapiens, UniProt P21554)
Type: functional, cell-based, CHO-K1
Description: Antagonist activity at human CB1 receptor expressed in CHOK1 cells assessed as inhibition of CP-55940-induced response after 10 mins by GTPgamma[35S] binding assay
pKi: −log10 of the molar value.
Measured Endpoint: pKi

Compound Structure String | Target System | Measured Endpoint | Observed Measurement
CC(C)CN1CCc2c(nn(-c3ccccc3Cl)c2-c2ccc(Cl)cc2)C1=O | Cannabinoid receptor 1 (Homo sapiens, UniProt P21554) | pKi | 8.01
O=C1c2nn(-c3ccccc3Cl)c(-c3ccc(Cl)cc3)c2CCN1CC(F)(F)F | Cannabinoid receptor 1 (Homo sapiens, UniProt P21554) | pKi | 8.51
CCN1CCc2c(nn(-c3ccccc3Cl)c2-c2ccc(Cl)cc2)C1=O | Cannabinoid receptor 1 (Homo sapiens, UniProt P21554) | pKi | 7.60
CC(C)N1CCc2c(nn(-c3ccccc3Cl)c2-c2ccc(Cl)cc2)C1=O | Cannabinoid receptor 1 (Homo sapiens, UniProt P21554) | pKi | 8.26
CC(C)(C)N1CCc2c(nn(-c3ccccc3Cl)c2-c2ccc(Cl)cc2)C1=O | Cannabinoid receptor 1 (Homo sapiens, UniProt P21554) | pKi | 7.96
CC(C)N1CCOc2c(nn(-c3ccccc3Cl)c2-c2ccc(Cl)cc2)C1=O | Cannabinoid receptor 1 (Homo sapiens, UniProt P21554) | pKi | 8.32
O=C1c2nn(-c3ccccc3Cl)c(-c3ccc(Cl)cc3)c2OCCN1CC(F)(F)F | Cannabinoid receptor 1 (Homo sapiens, UniProt P21554) | pKi | 8.82
CCC(F)(F)CN1CCOc2c(nn(-c3ccccc3Cl)c2-c2ccc(Cl)cc2)C1=O | Cannabinoid receptor 1 (Homo sapiens, UniProt P21554) | pKi | 9.15
